# Target system: acetylcholine receptor (Homo sapiens, UniProt P02708)
# Sequence (P02708 21-457): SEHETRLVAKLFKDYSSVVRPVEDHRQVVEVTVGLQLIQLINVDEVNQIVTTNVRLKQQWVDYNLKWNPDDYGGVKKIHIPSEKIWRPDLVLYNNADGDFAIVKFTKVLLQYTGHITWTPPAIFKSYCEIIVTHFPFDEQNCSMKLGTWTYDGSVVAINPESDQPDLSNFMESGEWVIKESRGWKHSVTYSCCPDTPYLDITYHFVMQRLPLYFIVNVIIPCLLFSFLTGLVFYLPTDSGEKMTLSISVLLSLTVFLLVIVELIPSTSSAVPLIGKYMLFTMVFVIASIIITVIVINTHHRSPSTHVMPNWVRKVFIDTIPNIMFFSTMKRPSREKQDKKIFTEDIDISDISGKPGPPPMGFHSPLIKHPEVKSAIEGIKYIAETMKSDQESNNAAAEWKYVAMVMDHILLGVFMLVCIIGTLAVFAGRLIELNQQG
# Assay remarks: SPR binding affinity (RU) of optimized 5mer/6mer/7mer peptides, Examples 6-7
# Experimental setup: SPR, peptides at 10 μM; 6mer-2 Bottom sequence
// Binding affinity lookup, one value per entry
Measurement label: Binding affinity (Ru)

               substance                             target_system  measurement_label  value
 0  6mer-2-1147 (KFMKKK)  acetylcholine receptor (Homo sapiens, UniProt P02708)   Binding affinity     35
 1  6mer-2-1114 (RKKFRK)  acetylcholine receptor (Homo sapiens, UniProt P02708)   Binding affinity     34
 2  6mer-2-1090 (KEMHKK)  acetylcholine receptor (Homo sapiens, UniProt P02708)   Binding affinity     33
 3  6mer-2-1189 (KTAPKK)  acetylcholine receptor (Homo sapiens, UniProt P02708)   Binding affinity     40
 4  6mer-2-1176 (RYTEKK)  acetylcholine receptor (Homo sapiens, UniProt P02708)   Binding affinity     43
 5  6mer-2-1149 (KIDFRR)  acetylcholine receptor (Homo sapiens, UniProt P02708)   Binding affinity     21
 6  6mer-2-1069 (KHDMKK)  acetylcholine receptor (Homo sapiens, UniProt P02708)   Binding affinity     36
 7  6mer-2-1078 (KDTFRR)  acetylcholine receptor (Homo sapiens, UniProt P02708)   Binding affinity     40
 8  6mer-2-1014 (RPPMRR)  acetylcholine receptor (Homo sapiens, UniProt P02708)   Binding affinity     34
 9  6mer-2-1042 (KKMFRK)  acetylcholine receptor (Homo sapiens, UniProt P02708)   Binding affinity     36
10  6mer-2-1038 (KHWERK)  acetylcholine receptor (Homo sapiens, UniProt P02708)   Binding affinity     33
11  6mer-2-1116 (KMEVKK)  acetylcholine receptor (Homo sapiens, UniProt P02708)   Binding affinity     31
12  6mer-2-1039 (RNHFRK)  acetylcholine receptor (Homo sapiens, UniProt P02708)   Binding affinity     26
13  6mer-2-1046 (RNSEKR)  acetylcholine receptor (Homo sapiens, UniProt P02708)   Binding affinity     39

====

// Binding affinity lookup, one value per entry
# Target system: acetylcholine receptor (Homo sapiens, UniProt P02708)
# Assay remarks: SPR binding affinity (RU) of optimized 5mer/6mer/7mer peptides, Examples 6-7
# Experimental setup: SPR, Resonance Units; peptides tested at 10 μM; 6mer-2 Top sequence
Measurement label: Binding affinity (Ru)

>>> print(df.to_string())
              substance  unit_text  value
 0  6mer-2-448 (RSFRRR)         Ru    128
 1  6mer-2-428 (KVFLKK)         Ru    142
 2  6mer-2-455 (RWYSKR)         Ru    135
 3  6mer-2-429 (RWRQRK)         Ru    123
 4  6mer-2-592 (RWVLRK)         Ru    122
 5  6mer-2-496 (RVRYRK)         Ru    144
 6  6mer-2-423 (RLQYRK)         Ru    154
 7  6mer-2-535 (KLFCRR)         Ru    133
 8  6mer-2-435 (RWVYKR)         Ru    154
 9  6mer-2-461 (KSVCRR)         Ru    149
10  6mer-2-573 (KLYLRR)         Ru    121
11  6mer-2-528 (KGFRKK)         Ru    151
12  6mer-2-499 (RLFTKR)         Ru    145
13  6mer-2-563 (KGYQKR)         Ru    131
14  6mer-2-559 (KGQLRR)         Ru    121
15  6mer-2-598 (KVFRRR)         Ru    146
16  6mer-2-597 (KQFLRK)         Ru    154
17  6mer-2-495 (KLLCKK)         Ru    121
18  6mer-2-574 (KGVYRK)         Ru    153
19  6mer-2-500 (KRICRR)         Ru    146
20  6mer-2-570 (RVYYKR)         Ru    148
21  6mer-2-476 (KGIRKK)         Ru    148
22  6mer-2-409 (KRRRKR)         Ru    139
23  6mer-2-456 (KSVTKR)         Ru    147
24  6mer-2-562 (RQQRKR)         Ru    136
25  6mer-2-483 (RRYLKK)         Ru    121
26  6mer-2-490 (RRYQKK)         Ru    145
27  6mer-2-525 (KWVRKK)         Ru    145
28  6mer-2-515 (RWYCRK)         Ru    123
29  6mer-2-454 (RSVQKK)         Ru    133
30  6mer-2-600 (RSQLKK)         Ru    139
31  6mer-2-503 (KVQTKK)         Ru    154
32  6mer-2-475 (KRFCRR)         Ru    139
33  6mer-2-494 (KGLLRR)         Ru    144
34  6mer-2-427 (RLQRRR)         Ru    147
35  6mer-2-510 (KRVLKK)         Ru    146
36  6mer-2-553 (RSLQKK)         Ru    124
37  6mer-2-568 (KGFQKK)         Ru    142
38  6mer-2-542 (RQIYRR)         Ru    148
39  6mer-2-523 (RGRYKR)         Ru    146
40  6mer-2-442 (RLVQKR)         Ru    139
41  6mer-2-593 (RSQLKR)         Ru    139
42  6mer-2-579 (RWQYRK)         Ru    135
43  6mer-2-411 (RSRQKK)         Ru    121
